Kindly supply the reported Kd values for the records listed here.
Biological target: T1, human NKp30-his protein (KACTUS; Cat: NKP-HM430) (human, UniProt O14931 19-135, limits assumed)
T1 construct: Bought protein (KACTUS NKP-HM430); not shown: His tag
T1 sequence (looked up): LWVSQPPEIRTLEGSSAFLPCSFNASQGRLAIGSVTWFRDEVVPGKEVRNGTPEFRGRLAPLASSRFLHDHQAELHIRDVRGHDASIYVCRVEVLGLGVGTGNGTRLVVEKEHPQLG
Assay: BLI (Octet Red96e), antibody captured on AHC sensor, 100 nM human NKp30-his in solution, 1:1 fit
Experimental: After equilibration of the AHC sensor with 0.02% PBST (0.02% Tween 20, pH 7.4, 1*PBS) as buffer for 60 s, the NKp30 antibody in the sample plate was immobilized for 300 s and second equilibration was performed for 180 s. […] human NKp30-his protein (KACTUS; Cat: NKP-HM430) was bound with NKp30 antibody for 300 s and then dissociated for 600 s. After dissociation, 10 mM glycine (pH 2.0) was used as regeneration buffer to regenerate for 30 s. […]
Numbers only, in nM.

# annotated cases, reported Kd shown
Binder | Readout name | Value unit | Recorded number
antibody 9 (antibody, V domains shown, expressed in CHO cells) VH: QVQLVESGGGSVQAGGSLRLSCAASGRTFSDYVMGWFRQAPGKEREFVGTITRIGGMPYYADFVKGRFTISRDYAKNAGYLQLNNLKPEDTALYYCALDLRLRLGVTPREYDYWGQGTQVTVSS | Kd | nM | 5.56
antibody 23 (antibody, V domains shown, expressed in CHO cells; also called chimeric antibody 23) VH: EVQLVESGGGLVQPGGSLRLSCAASGSIFSPNGIGWYRQAPGKLRELVAGITGNGLTDYADSVKGRFTISRDSAKNTVYLQMNSLKTEDTAVYYCNLLLNHAEWGQGTQVTVSS | Kd | nM | 2.34
antibody 12 (antibody, V domains shown, expressed in CHO cells) VH: EVQLVESGGDLVQPGGSLRLSCAAFGSSFSIDMMGWYRQVPGKQRELVAGITKGGFADYADSVKGRFTISMDAAKNTVYLQMNSLKPEDTAVYYCNTLPTHSDWGQGTQVTVSS | Kd | nM | 0.491
antibody 4 (antibody, V domains shown, expressed in CHO cells) VH: QVQLVESGGGLVQPGGSLRLSCAASGSIFKINAMGWYRQAPGKLRELVAGITSGGSTNYADSVKGRFTISRDNAKNTLYLQMNSLKPDDTAVYYCNQLGFPQYWGQGTQVTVSS | Kd | nM | 4.97
antibody 11 (antibody, V domains shown, expressed in CHO cells) VH: EVQLVESGGGLVQPGESLRLSCVASGGDFRFKSMGWYRQAPGKLRELVAGITTGGVTDYADSVKGRFTISRDNANKAVWLQMNRLKPDDTAVYDCNTLGAAAYDWGQGTQVTVSS | Kd | nM | 3.06
antibody 7 (antibody, V domains shown, expressed in CHO cells) VH: EVQVVESGGGLVQAGGSLRLSCAASGRTFSNYNVGWFRQAPGKEREFLATISESGGSTYYADSVKGRFTISRDNGINMVYLQMSSLKPEDTAVYYCAESRIFSFSYADGRGYAYWGQGTQVTVFS | Kd | nM | 9.64

Shift focus to the following entry.
In: Bench note: what Kd did antibody 18 (antibody, V domains shown, expressed in CHO cells; also called chimeric antibody 18) VH: EVQLVESGGGLVQPGGSLRLSCAAAGIRFSIANMGWYRQAPGKLHEMVAGITSDGFTNYADSVKGRFTISRDNAKNTVYLQMNNLKPEDTAVYYCDSFPTRHYWGQGTQVTVSS show?
Out: 0.302
